Measured growth inhibition, listed per entry.
experiment: NCI Yeast Anticancer Drug Screen. Data for the rad50 strain (AID 155);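 further: 0% = growth of vehicle-only cultures of the same strain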; conditions: S. cerevisiae rad50 strain growth inhibition; at 5.0 µM (retest, dose inferred, filed as 0.5); active compounds read high
The panel holds about 79,000 compounds, 15% with a hit somewhere; the sample as a whole holds those more often.
I only need the number, in %, no unit after it.

Solved cases below.
| MOLECULE | UNIT | growth inhibition |
| --- | --- | --- |
| CCCCCCCCC1OC1CCCCCCCC(=O)OCC1CO1 (centres undefined) | % | 1 |
| CCC(C)SSc1ccccc1C(=O)Nc1ccc(Cl)cc1 (centres undefined) | % | 3 |
| O=C(C[N+]12CN3CN(CN(C3)C1)C2)c1ccc(Cl)cc1Cl | % | -2 |
| Oc1c(N(Cc2ccccc2)Cc2ccccc2)ccc2cccnc12 | % | -2 |
| C=C(C#N)C(=O)OCC(CC)CC.C=C(C#N)C(=O)OCC(CC)CC.CS(C)=O.CS(C)=O.Nc1c(N=Nc2ccc(-c3ccc(N=Nc4cc(S(=O)(=O)[O-])c5ccccc5c4N)cc3)cc2)cc(S(=O)(=O)[O-])c2ccccc12.[Pt+2] | % | -13 |
| CC1=CC(O)(c2ccc(-c3ccccc3Cl)cc2)OC1=O (centres undefined) | % | -8 |

Per the record, Cc1c(C(=O)N(CCO)CCO)[n+](=O)c2ccccc2n1[O-] has growth inhibition of 5

Per the record, NN=C(CC(O)(C(F)(F)Cl)C(F)(F)Cl)CC(O)(C(F)(F)Cl)C(F)(F)Cl has growth inhibition of 32

Per the record, CC(=O)OC1=Cc2ccccc2C(c2ccccc2)c2ccccc21 (centres undefined) has growth inhibition of -10

Per the record, c1nc(N2CCOCC2)c2[nH]cnc2n1 has growth inhibition of 5

Per the record, COc1ccc(C(c2ccc(N(C)C)cc2)c2ccc(N(C)C)cc2)cc1 has growth inhibition of 97

====

test: NCI Yeast Anticancer Drug Screen. Data for the bub3 strain (AID 167); details: S. cerevisiae bub3 mutant strain, at 50.0 µM (retest, dose inferred, filed as 5.0), active compounds read high
This is part of a sample that, as a whole, favours compounds with a hit. Of some 79,000 tested, about 15% had one in any assay.
Tick 1 if growth inhibition is 90% or greater. Tick 0 if growth inhibition is less than 90%.

Example entries and their recorded answers appear below.
| MOLECULE | QUALITATIVE LABEL |
| --- | --- |
| OC1C2CCC1C1C3C=CC(C3)C21 (stereo not drawn) | 0 |
| N/C(=N\N=C\c1cc(I)cc(I)c1O)NO | 1 |
| CC(=O)Nc1nnc(-c2coc3ccccc3c2=O)s1 | 0 |
| COc1ccc(C(c2cc3c(cc2O)OCO3)N2CCOCC2)c(OC)c1OC (stereo not drawn) | 0 |
| CCCCCCCOC(=O)c1cc2cc(C(CC)C(CC)c3ccc(O)cc3)ccc2oc1=O (stereo not drawn) | 0 |

Q: Reported growth inhibition reaches at least 90% for CC(C)(CN1CCCCC1)C(/C=C/c1ccc(Cl)c(Cl)c1)=N\NC(=O)N/N=C(/C=C/c1ccc(Cl)c(Cl)c1)C(C)(C)CN1CCCCC1 ?
A: 0

Q: Reported growth inhibition reaches at least 90% for Cc1cc(SCC(=O)c2ccc(Br)cc2)cc(C)[o+]1 ?
A: 1

Q: Reported growth inhibition reaches at least 90% for CCOSc1ccccc1 ?
A: 0

Q: Reported growth inhibition reaches at least 90% for COc1nc(NC2OC(CO)C(O)C(O)C2O)c(Cl)c(=O)[nH]1 (stereo not drawn) ?
A: 0

Q: Reported growth inhibition reaches at least 90% for CCCCCCC(=O)OCCN(CCOC(=O)CCCCCC)C(=O)C(C)OC(=O)CCCCCC (stereo not drawn) ?
A: 0

Q: Reported growth inhibition reaches at least 90% for CCCCCCCCCCCCCCCBr ?
A: 0

Q: Reported growth inhibition reaches at least 90% for CCC(C)NC(=S)N/N=C(\C)c1ccccn1 (stereo not drawn) ?
A: 1

Q: Reported growth inhibition reaches at least 90% for O=c1c2cnccc2cc2c3ccccc3ccn12 ?
A: 0

Q: Reported growth inhibition reaches at least 90% for O=S(=O)(CCCl)Cc1ccccc1 ?
A: 0

Q: Reported growth inhibition reaches at least 90% for O=[N+]([O-])c1cccc(/C=N/Nc2ccc3ccccc3n2)c1O ?
A: 0

Q: Reported growth inhibition reaches at least 90% for O=C(O)c1cc(-c2ccc3c(c2)Nc2ccccc2S3)nc2ccc(F)cc12 ?
A: 1

Q: Reported growth inhibition reaches at least 90% for CN1C=C(C#N)CCC1Sc1ccc(Cl)cc1 (stereo not drawn) ?
A: 0

Q: Reported growth inhibition reaches at least 90% for O=C(O)CSc1ccc(N=C=S)cc1 ?
A: 1

Q: Reported growth inhibition reaches at least 90% for OC1CCCCC1Cc1ccc(Cl)cc1 (stereo not drawn) ?
A: 1
